# Tested on: Pseudomonas aeruginosa
# protocol.description: Antimicrobial activity against Pseudomonas aeruginosa isolate 2804 obtained from cystic fibrosis patient by disk diffusion method
# Type: functional
API: label(entry) gives yes if the entry's MIC is strictly smaller than 2 µg/mL; on equality or larger values it gives no.

The following compounds have reported results that may help.
Could you please tell me whether MIC recorded for NC[C@H]1O[C@H](O[C@H]2[C@H](O)[C@@H](O[C@H]3O[C@H](CO)[C@@H](O)[C@H](N)[C@H]3O)[C@H](N)C[C@@H]2N)[C@H](N)C[C@@H]1O [TOBRAMYCIN] is less than 2 µg/mL? no

MIC under 2 µg/mL? Item: CO/N=C(\C(=O)N[C@@H]1C(=O)N2C(C(=O)[O-])=C(C[N+]3(C)CCCC3)CS[C@H]12)c1csc(N)n1 no

Hello, I'm reviewing records and need to know if MIC of CO[C@@H]1[C@@H](OC(N)=O)[C@@H](O)[C@H](Oc2ccc3c(O)c(NC(=O)c4ccc(O)c(CC=C(C)C)c4)c(=O)oc3c2C)OC1(C)C [NOVOBIOCIN] is below 2 µg/mL. Could you check? no

Given NCC[C@H](O)C(=O)N[C@@H]1C[C@H](N)[C@@H](O[C@H]2O[C@H](CN)[C@@H](O)[C@H](O)[C@H]2O)[C@H](O)[C@H]1O[C@H]1O[C@H](CO)[C@@H](O)[C@H](N)[C@H]1O [AMIKACIN] , is recorded MIC strictly lower than 2 µg/mL? no

Item C[C@H]1[C@H](NC(=O)/C(=N\OC(C)(C)C(=O)O)c2csc(N)n2)C(=O)N1S(=O)(=O)O [AZTREONAM] : MIC beneath 2 µg/mL, strictly? yes

Others:
Quick check: does CC1(C)S[C@@H]2[C@H](NC(=O)[C@H](C(=O)O)c3ccsc3)C(=O)N2[C@H]1C(=O)O [TICARCILLIN] have MIC under 2 µg/mL? yes

Could you please tell me whether MIC recorded for O=C(O)c1cn(C2CC2)c2cc(N3CCNCC3)c(F)cc2c1=O [CIPROFLOXACIN] is less than 2 µg/mL? no
